Overview of reported GI50 across a group of molecules:
tested on: M14 melanoma; assay: NCI tumour cell line growth inhibition, 48 h

Some molecules with known GI50 results, for comparison:
INSERT INTO results (molecule, tested_system, observed_measurement) VALUES
  ('COc1cccc(N2CCN(c3ncnc4cc[nH]c34)CC2)c1', 'M14 melanoma', '3.76 µM'),
  ('CN(C)c1cc2c(Nc3ccc4c(cnn4Cc4ccccc4)c3)ncnc2cn1', 'M14 melanoma', '14.8 µM'),
  ('O=C(CSC(c1ccccc1)c1ccccc1)N/N=C/c1ccccc1Cl', 'M14 melanoma', '36.8 µM');

Data request: # get_value(readout='GI50', item= COc1cc2c3c(n(CCN4CCOCC4)c(=O)c2cc1OC)-c1ccccc1C3=O )
Data returned: > 100 µM

Data request: What do you get for CNCC(=O)NC(CO)C(=O)NC(CO)C(=O)NC1C(C(N)=O)OC(n2ccc(N)nc2=O)C(O)C1O (stereo not given) ?
Data returned: 9.22 µg/mL
